Give CC50 for every item shown.
# Test system: human A549 lung cancer cells
# assay-text: MTS antiproliferative/cell viability assay in A549 cells
# Type: cell-based
# settings: human A549 lung cancer cells, MTS, 72 h, n = 3; read-out: CC50 (concentration for a 50% decrease in viability)
Number first, unit second.

compound	CC50
CC[C@H](C)[C@H]1C(=O)N[C@@H](C)C(=O)N(C)[C@@H](CC(C)C)C(=O)N[C@@H](Cc2ccc(OC)cc2)C(=O)N(C)[C@H](C)/C=C/[C@H](C)[C@H](N(C)C(=O)[C@H](CC(C)C)N(C)C(=O)[C@H](C)N(C)C(=O)[C@H](OC(=O)[C@H](C(C)C)N(C)C)C(C)C)C(=O)N(C)[C@@H](C)C(=O)N1C [Peptide 3b]	2.6 nM
CC[C@H](C)[C@H]1C(=O)N[C@@H](C)C(=O)N(C)[C@@H](CC(C)C)C(=O)N[C@@H](Cc2ccc(OC)cc2)C(=O)N(C)[C@H](C)C(=O)N[C@H](C)[C@H](N(C)C(=O)[C@H](CC(C)C)N(C)C(=O)[C@H](COC)N(C)C(=O)[C@H](OC(=O)[C@H](C(C)C)N(C)C)C(C)C)C(=O)N(C)[C@@H](COC)C(=O)N1C [Peptide 16b]	1.3 nM

Kindly consider the entry below.
## Input Give the measured CC50 of CC[C@H](C)[C@H]1C(=O)N[C@@H](C)C(=O)N(C)[C@@H](CC(C)C)C(=O)N[C@@H](Cc2ccc(OC)cc2)C(=O)N(C)[C@H](C)C(=O)N(C)C[C@H](N(C)C(=O)[C@H](CC(C)C)N(C)C(=O)[C@H](C)N(C)C(=O)[C@H](OC(=O)[C@H](C(C)C)N(C)C)C(C)C)C(=O)N(C)[C@@H](C)C(=O)N1C [Peptide 17b] .
## Output 6500 nM
